# Tested on: Escherichia coli
# EXPERIMENT: Antibacterial activity against extended-spectrum beta-lactamase-producing Escherichia coli isolate 12-4
# Assay type: functional
Let's look at some compounds and their measured log10 MIC.
Please note: log10 values; quantity MIC; unit µg/mL.

# annotated cases, reported log10 MIC shown
Ask: Item: CNC1CCN(c2nc3c(cc2F)c(=O)c(C(=O)O)cn3C2CC2)C/C1=N\OC (configuration not stated) Test system: Escherichia coli Read-out: log10 MIC Value: ?
Reply: 1.20

Ask: What is its log10 MIC for Escherichia coli? Entry: CO/N=C1\CN(c2nc3c(cc2F)c(=O)c(C(=O)O)cn3C2CC2)CCC1N (configuration not stated)
Reply: 1.51

Ask: Find log10 MIC (Escherichia coli) for the entry CNC1CCN(c2c(F)cc3c(=O)c(C(=O)O)cn(C4CC4)c3c2F)C/C1=N\OC (configuration not stated)
Reply: 2.11

Ask: Reported log10 MIC for Escherichia coli, given CNC1CCN(c2ccc3c(=O)c(C(=O)O)cn(C4CC4)c3n2)C/C1=N\OC (configuration not stated) ?
Reply: 1.81

More entries:
Ask: Identify the measured log10 MIC of CO/N=C1\CN(c2nc3c(cc2F)c(=O)c(C(=O)O)cn3C2CC2)CC1CN (configuration not stated) for Escherichia coli.
Reply: 0.30

Ask: Query the reported log10 MIC for Escherichia coli; item: O=C1NC2CCN(c3nc4c(cc3F)c(=O)c(C(=O)O)cn4C3CC3)CC2O1 (configuration not stated)
Reply: 1.81

Ask: For the record CCO/N=C1\CN(c2c(F)cc3c(=O)c(C(=O)O)cn4c3c2OC[C@@H]4C)CCC1NC (some centres not stated) , what value of log10 MIC is listed for Escherichia coli?
Reply: 1.81

// data source = ChEMBL document CHEMBL2331542
